Data credit: patent US10517889B2

Test system: human SMAD7 mRNA
protocol: Dose-dependent inhibition of human SMAD7 mRNA expression in Hep3B cells (Example 3, Study 1 and 2)
Assay type: cell-based
condition set: 312.5 nM, electroporation, approximately 16 hours, Study 1, relative to untreated control cells
Strand notation (5' to 3'): a small letter for the sugar, then the base; units joined by * are phosphorothioate-linked, units joined directly phosphodiester-linked; [ ] holds rarer units or linkages, { } end groups; capitals alone tell only the bases. e = 2'-O-(2-methoxyethyl) (MOE); [5mC] = 5-methylcytosine; d = 2'-deoxy (DNA)
metric name: % inhibition of SMAD7 mRNA expression (%)
Unit % implied. Number only.

Check out these entries, answers already filled in.
substance	units of measure	% inhibition of SMAD7 mRNA expression
771773 (antisense eT*e[5mC]*eT*eT*eT*dT*d[5mC]*dG*d[5mC]*dA*dT*d[5mC]*d[5mC]*dT*d[5mC]*eA*eG*eG*eA*eA) [compound 771773]	%	0
771487 (antisense e[5mC]*eT*eG*e[5mC]*eA*d[5mC]*dG*dG*dT*dA*dA*dA*dG*d[5mC]*d[5mC]*e[5mC]*eG*eT*e[5mC]*e[5mC]) [compound 771487]	%	4
771573 (antisense eG*e[5mC]*eT*eT*eG*dG*dG*dA*d[5mC]*dT*dG*d[5mC]*dA*dA*dA*e[5mC]*e[5mC]*eT*e[5mC]*eT) [compound 771573]	%	0

Supply reported % inhibition of SMAD7 mRNA expression belonging to this substance: 483663 (antisense e[5mC]*eA*eG*e[5mC]*e[5mC]*dT*d[5mC]*dT*dT*dG*dA*d[5mC]*dT*dT*d[5mC]*e[5mC]*eG*eA*eG*eG) [compound 483663]
0

---

Test system: human SMAD7 mRNA
protocol: Antisense inhibition of human SMAD7 mRNA expression in Hep3B cells by 3-10-3 cEt gapmers, 10,000 nM, electroporation (Example 2)
Format: cell-based
condition set: Hep3B cells, electroporation with 10,000 nM antisense oligonucleotide, approximately 24 hours, primer probe set RTS5062, relative to untreated control cells
Strand notation (5' to 3'): a small letter for the sugar, then the base; units joined by * are phosphorothioate-linked, units joined directly phosphodiester-linked; [ ] holds rarer units or linkages, { } end groups; capitals alone tell only the bases. k = constrained ethyl (cEt); [5mC] = 5-methylcytosine; d = 2'-deoxy (DNA)
# % inhibition of SMAD7 mRNA expression values compiled below
Be sure to follow the number with its unit.

substance	% inhibition of SMAD7 mRNA expression
799197 (antisense k[5mC]*kT*k[5mC]*dA*dA*dA*dG*d[5mC]*dA*d[5mC]*dT*dA*d[5mC]*kA*kA*kT) [compound 799197]	34%
798723 (antisense k[5mC]*kG*k[5mC]*d[5mC]*dT*dT*dG*d[5mC]*d[5mC]*d[5mC]*dA*dG*dG*k[5mC]*kA*kG) [compound 798723]	0%
799359 (kT*kG*kT*dT*dA*dA*dA*dG*d[5mC]*dT*dG*dA*dG*k[5mC]*k[5mC]*k[5mC]; antisense) [compound 799359]	22%
799340 (kA*kG*kA*dT*dA*d[5mC]*d[5mC]*d[5mC]*dA*dG*dT*dT*d[5mC]*kG*kG*k[5mC]; antisense) [compound 799340]	0%
790462 (kG*k[5mC]*kG*d[5mC]*dA*dG*dG*d[5mC]*dG*dA*d[5mC]*dA*dG*k[5mC]*kA*kG; antisense) [compound 790462]	43%

Supply reported % inhibition of SMAD7 mRNA expression belonging to this substance: 799069 (antisense kA*kT*kA*dA*dG*dA*d[5mC]*dA*dA*dG*dG*dA*dT*kG*kA*kA) [compound 799069]
18%

---

Test system: human SMAD7 mRNA
protocol: Dose-dependent inhibition of human SMAD7 mRNA expression in Hep3B cells (Example 3, Study 1 and 2)
Format: cell-based
condition set: 20000.0 nM, electroporation, approximately 16 hours, Study 2
Strand notation (5' to 3'): a small letter for the sugar, then the base; units joined by * are phosphorothioate-linked, units joined directly phosphodiester-linked; [ ] holds rarer units or linkages, { } end groups; capitals alone tell only the bases. k = constrained ethyl (cEt); [5mC] = 5-methylcytosine; d = 2'-deoxy (DNA)
metric name: % inhibition of SMAD7 mRNA expression
Be sure to follow the number with its unit.

Check out these entries, answers already filled in.
substance	% inhibition of SMAD7 mRNA expression
799563 (kA*kA*kA*dA*d[5mC]*dA*dA*dA*d[5mC]*dA*dA*dG*dG*kG*kT*k[5mC]; antisense) [compound 799563]	88%
790666 (kT*kA*kA*dT*dT*dT*dA*dT*dG*dA*d[5mC]*dA*dA*k[5mC]*kG*k[5mC]; antisense) [compound 790666]	74%
829995 (kT*kG*kG*dA*dG*dG*d[5mC]*dA*dG*dG*dG*d[5mC]*d[5mC]*kG*k[5mC]*kG; antisense) [compound 829995]	84%
799967 (kG*kA*k[5mC]*dG*dA*dT*dG*dA*dA*dT*d[5mC]*d[5mC]*dT*kG*kG*k[5mC]; antisense) [compound 799967]	20%
799709 (antisense kT*k[5mC]*kA*dA*dA*d[5mC]*dT*dT*dG*dT*dG*dG*dT*kA*kA*kA) [compound 799709]	62%

Field: next substance
Supply reported % inhibition of SMAD7 mRNA expression belonging to this substance: 799577 (kT*kT*k[5mC]*d[5mC]*dG*dA*dA*dA*dG*dG*dA*d[5mC]*d[5mC]*k[5mC]*kT*kT; antisense) [compound 799577]
86%

---

Test system: human SMAD7 mRNA
protocol: Antisense inhibition of human SMAD7 mRNA expression in Hep3B cells by 5-10-5 MOE gapmers, single concentration, electroporation, RT-PCR (Example 1, Study 1 and 2)
Assay type: cell-based
condition set: Study 2, electroporation with 15,000 nM antisense oligonucleotide, 5-10-5 MOE gapmers targeting SEQ ID NO: 1 and 2
Strand notation (5' to 3'): a small letter for the sugar, then the base; units joined by * are phosphorothioate-linked, units joined directly phosphodiester-linked; [ ] holds rarer units or linkages, { } end groups; capitals alone tell only the bases. e = 2'-O-(2-methoxyethyl) (MOE); [5mC] = 5-methylcytosine; d = 2'-deoxy (DNA)
% inhibition of SMAD7 mRNA expression vs 9%: at or above is MET, below is NOT MET.

Observe how each entry below is paired with its result.
substance	class
771575 (antisense eA*e[5mC]*e[5mC]*eG*e[5mC]*dT*dT*dG*dG*dG*dA*d[5mC]*dT*dG*d[5mC]*eA*eA*eA*e[5mC]*e[5mC]) [compound 771575]	MET
771622 (antisense eA*eA*e[5mC]*eA*e[5mC]*dA*d[5mC]*dA*dG*dG*dA*dT*dG*dG*dG*eA*eG*e[5mC]*eA*eG) [compound 771622]	MET
771676 (antisense eT*eG*eT*eT*eT*dA*dT*dA*d[5mC]*dA*d[5mC]*dA*dT*dT*dG*e[5mC]*eA*e[5mC]*eA*eA) [compound 771676]	NOT MET

I'd appreciate it if you could say whether 771615 (antisense eA*eG*e[5mC]*eT*eG*dG*dT*dT*dT*dT*d[5mC]*dT*dA*dA*dG*eT*e[5mC]*e[5mC]*eG*eG) [compound 771615] has % inhibition of SMAD7 mRNA expression at least equal to 9%.
MET

I'd appreciate it if you could say whether 771612 (antisense eT*e[5mC]*e[5mC]*eG*eG*dG*dA*dA*dA*dA*dA*d[5mC]*d[5mC]*dT*dG*eA*eT*eG*eT*e[5mC]) [compound 771612] has % inhibition of SMAD7 mRNA expression at least equal to 9%.
NOT MET

I'd appreciate it if you could say whether 771687 (antisense e[5mC]*eT*eT*eG*eT*dG*dT*dT*dT*dA*dT*d[5mC]*dT*dT*dT*eT*eT*eT*eA*eA) [compound 771687] has % inhibition of SMAD7 mRNA expression at least equal to 9%.
MET

I'd appreciate it if you could say whether 771558 (antisense eA*eA*eA*eT*eG*dA*dT*dG*dA*d[5mC]*d[5mC]*dG*d[5mC]*d[5mC]*d[5mC]*e[5mC]*e[5mC]*e[5mC]*eT*eT) [compound 771558] has % inhibition of SMAD7 mRNA expression at least equal to 9%.
NOT MET

I'd appreciate it if you could say whether 582468 (antisense eG*e[5mC]*e[5mC]*eA*eA*dT*dA*dT*d[5mC]*dA*dT*dA*dA*d[5mC]*d[5mC]*e[5mC]*eA*eA*eG*e[5mC]) [compound 582468] has % inhibition of SMAD7 mRNA expression at least equal to 9%.
NOT MET

I'd appreciate it if you could say whether 771604 (antisense e[5mC]*e[5mC]*eT*eT*eG*dG*dG*dA*dA*dG*d[5mC]*d[5mC]*d[5mC]*dA*dT*e[5mC]*eT*e[5mC]*eA*eG) [compound 771604] has % inhibition of SMAD7 mRNA expression at least equal to 9%.
MET

I'd appreciate it if you could say whether 771670 (antisense eA*eG*eT*e[5mC]*e[5mC]*dT*dT*dT*d[5mC]*dT*d[5mC]*dT*d[5mC]*dT*d[5mC]*eA*eA*eA*eG*e[5mC]) [compound 771670] has % inhibition of SMAD7 mRNA expression at least equal to 9%.
MET

I'd appreciate it if you could say whether 771686 (antisense eG*eT*eT*eT*eA*dT*d[5mC]*dT*dT*dT*dT*dT*dT*dA*dA*eT*eT*eT*eG*eG) [compound 771686] has % inhibition of SMAD7 mRNA expression at least equal to 9%.
NOT MET

I'd appreciate it if you could say whether 771630 (antisense eT*eG*e[5mC]*eT*eA*dA*dG*d[5mC]*dA*dT*dG*dT*d[5mC]*d[5mC]*d[5mC]*eT*e[5mC]*e[5mC]*e[5mC]*eA) [compound 771630] has % inhibition of SMAD7 mRNA expression at least equal to 9%.
MET

I'd appreciate it if you could say whether 771599 (antisense eG*e[5mC]*eA*eG*eG*dA*dA*dG*dG*dG*dA*dA*dT*dA*dA*eG*eA*e[5mC]*eA*eA) [compound 771599] has % inhibition of SMAD7 mRNA expression at least equal to 9%.
MET

I'd appreciate it if you could say whether 771567 (antisense eG*eG*eG*eA*e[5mC]*dA*dT*d[5mC]*d[5mC]*dA*dT*dA*dA*dG*dA*eG*eA*e[5mC]*eA*e[5mC]) [compound 771567] has % inhibition of SMAD7 mRNA expression at least equal to 9%.
MET

I'd appreciate it if you could say whether 771606 (antisense eG*eG*eG*e[5mC]*eT*dG*d[5mC]*d[5mC]*d[5mC]*d[5mC]*dG*dG*d[5mC]*dA*dG*e[5mC]*e[5mC]*e[5mC]*eT*eT) [compound 771606] has % inhibition of SMAD7 mRNA expression at least equal to 9%.
NOT MET

I'd appreciate it if you could say whether 771527 (antisense eG*eA*eG*eT*eT*dT*dG*d[5mC]*dA*dT*dG*dA*dA*dA*dA*eG*e[5mC]*eA*eA*eG) [compound 771527] has % inhibition of SMAD7 mRNA expression at least equal to 9%.
NOT MET

I'd appreciate it if you could say whether 771671 (antisense eT*e[5mC]*eA*eG*eG*dA*dG*dT*d[5mC]*d[5mC]*dT*dT*dT*d[5mC]*dT*e[5mC]*eT*e[5mC]*eT*e[5mC]) [compound 771671] has % inhibition of SMAD7 mRNA expression at least equal to 9%.
MET

I'd appreciate it if you could say whether 771620 (antisense e[5mC]*eA*e[5mC]*eA*e[5mC]*dA*dG*dG*dA*dT*dG*dG*dG*dA*dG*e[5mC]*eA*eG*eG*e[5mC]) [compound 771620] has % inhibition of SMAD7 mRNA expression at least equal to 9%.
MET

I'd appreciate it if you could say whether 771532 (antisense eA*eG*eA*eA*eG*dA*dA*dA*dA*d[5mC]*d[5mC]*dA*dA*d[5mC]*d[5mC]*eA*eA*e[5mC]*eA*eA) [compound 771532] has % inhibition of SMAD7 mRNA expression at least equal to 9%.
NOT MET

I'd appreciate it if you could say whether 771564 (antisense eG*e[5mC]*e[5mC]*eG*e[5mC]*dA*d[5mC]*dA*d[5mC]*dT*d[5mC]*dA*d[5mC]*dA*d[5mC]*eT*e[5mC]*eA*e[5mC]*eA) [compound 771564] has % inhibition of SMAD7 mRNA expression at least equal to 9%.
MET
